# systemName: T1, human TL1A (human, UniProt O95150 72-251, limits assumed)
# T1 construct: also called huTL1A; TNFSF15
# T1 sequence (looked up): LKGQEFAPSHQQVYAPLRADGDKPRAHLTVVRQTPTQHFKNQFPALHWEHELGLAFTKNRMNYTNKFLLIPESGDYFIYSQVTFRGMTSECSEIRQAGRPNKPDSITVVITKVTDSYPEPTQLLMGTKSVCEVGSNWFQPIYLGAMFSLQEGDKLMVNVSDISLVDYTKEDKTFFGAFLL
# experimentSummary: hybridoma screening after immunisation with recombinant human TL1A soluble protein; member named through Tables A, C and D
reportedEndpoint: binding result

>>> measuredvalue("58G5 (antibody, human IgG2, lambda, V domains shown, also called iPS 427539) VH: EVQLLESGGGLVQPGGSLRLSCAASGFTFSNYAMSWVRQAPGKGLQWVSVISGRGGSTYYADSVKGRFTISRDNSKNTLYLQMNSLRAEDTAVYYCAKDGYSSAWYFDYWGQGTLVTVSS VL: QSVLTQPPSVSGAPGQRVTISCTGSSSNIGAGYDVHWYQQLPGTAPKLLIYGNSHRPSGVPDRFSGSKSGTSASLAITGLQAEDEADYYCQSYDSSLSGYVFGTGTKVTVLG")
"binds"
>>> measuredvalue("77D12 (antibody, human IgG2, lambda, V domains shown, also called iPS 427549) VH: QVQLVQSGAEVKKPGASVRVSCKASGYTFTGFYMHWVRQAPGQGLEWMGWINPDSGGTNYAQKFQGRVTMTRDTSISTAYMELSRLRSDDTAVYYCAREGIAVALTYWGQGTLVTVSS VL: QSVLTQPPSASGTPGQRVTISCSESNSDIGTNAVNWYQQFPGTAPKFLIYSNNKRPSGVPDRFSGSKSGTSASLAISGLQSEDEADYYCATWDDNLNGPLFGGGTKLTVLG")
"binds"
